src = the supplement of paper PMC6757056

Readings of normalized RNA/DNA level without ligand (log10) for the listed variants
B1: library; a variant is named by its letters at N, in order (parent)
chain: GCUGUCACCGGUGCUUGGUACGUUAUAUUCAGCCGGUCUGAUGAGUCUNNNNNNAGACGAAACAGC

- Variants of: B1
- experimental_details: normalized RNA/DNA level without ligand (relative to sTRSVctl = 100) (log10 (% of sTRSVctl)); HEK293T overexpressing SLC46A1; higher = less ribozyme self-cleavage, higher mRNA level
- condition_label: without (6R,S)-folinic acid; ligand present: no
Hey, just send me the number, nothing else.

Recorded results for 6 variants are shown here.
AGGUUG 2
GUGUGA 1.97
CGCUCU 2.1
CAGAAG 1.92
CCGAAC 2.04
ACAGCU 2.06

# evaluate next
// normalized RNA/DNA level without ligand (log10) value for UACAUU : 2.01
